src = ChEMBL document CHEMBL1201862

For each record, write down the corresponding GI50.
# Tested on: KM-20L2
# assay_overview: NCI tumour cell line growth inhibition, 48 h
The source made the active and inactive calls. No stated cut-off is given here; in the data, active = GI50 up to about 1.1 µM and inactive = higher. Non-standard residues stand in square brackets, D forms with d. Residues, ends and D or L forms follow the SMILES beside them. ξ: configuration not given here. *: point of attachment. NMeF = CN[C@@H](Cc1ccccc1)C(=O)O; NMeN = CN[C@@H](CC(N)=O)C(=O)O; NMeV = CN[C@H](C(=O)O)C(C)C; ξNMeV = CNC(C(=O)O)C(C)C; Boc = CC(C)(C)OC(=O)*; ξNMeA = CNC(C)C(=O)O; ξV = CC(C)C(N)C(=O)O

COc1cc(/C=C(\NC(=O)c2ccccc2)c2nc3ccc4c(c3[nH]2)C(=O)c2ccccc2C4=O)cc(OC)c1OC: > 100 µM (inactive)
BrC1=CC=C2NCCCCCC/N=C3\C=CC(Br)=CC=C3NCCCCCC/N=C\2C=C1: > 25.5 µM (inactive)
COC(=O)C(C)N(C)C(=O)[C@H](CC(N)=O)N(C)C(=O)[C@@H]1CCCN1C(=O)[C@H](C(C)C)N(C)C(=O)C(C(C)C)N(C)C(=O)[C@H](Cc1ccccc1)N(C)C(=O)C(NC(=O)OC(C)(C)C)C(C)C (some centres not stated) (Boc-[ξV][NMeF][ξNMeV][NMeV]P[NMeN][ξNMeA]-OMe): 33 µM (inactive)
CN1CC[C@]2(C)c3c(O)cccc3CC3CCCC1C32C (some centres not stated): > 100 µM (inactive)
COc1cc(C(C)O)c[n+](CCc2c[nH]c3ccccc23)c1 (configuration not stated): 56.9 µM (inactive)

For every item below, please supply its GI50.
1. OC1C2CCC1C1C3C=CC(C3)C21 (configuration not stated)
2. N#Cc1ccc(C2SCc3nc4ccccc4n32)cc1 (configuration not stated)
3. COc1ccc(-c2cc(O)c3cc4c(cc3n2)OCO4)cc1OC
4. COC(=O)CCC(=O)N1C/C(=C\c2ccccc2)C(=O)/C(=C/c2ccccc2)C1
5. C=CCOCCC(CC=C)C(=O)CC(=O)OC (configuration not stated)
6. CCc1ccccc1NC(=O)C(=O)C1C(=O)N(c2ccccc2)N=C1N (configuration not stated)
7. CCc1cccc(CC)c1NC(=O)C1=C(C)NC(C)=C(C(=O)Nc2c(CC)cccc2CC)C1c1ccc([N+](=O)[O-])cc1
8. COc1ccccc1-n1c(NN)nc2ccc(Br)cc2c1=O

**A:**
77.3 µM (inactive)
52.7 µM (inactive)
> 100 µM (inactive)
2.24 µM (inactive)
> 100 µM (inactive)
> 100 µM (inactive)
26.7 µM (inactive)
39.9 µM (inactive)

For every item below, please supply its GI50.
1. COC1C(O)C(n2ncc3c(SC)nc(SC)nc32)OC1C(O)CO (configuration not stated)
2. Cc1ccc(-n2c(C)nc3c2C(=O)c2ccccc2C3=O)cc1
3. CC(=O)SCCC1c2[nH]c3ccccc3c2CCN1O (configuration not stated)
4. O=C(O)C1CCc2nnc(-c3ccccc3)n21 (configuration not stated)

**A:**
1. > 100 µM (inactive)
2. 18.3 µM (inactive)
3. > 100 µM (inactive)
4. > 100 µM (inactive)

For every item below, please supply its GI50.
1. COc1ccc2ccccc2c1C1OC(=O)c2ccccc21 (configuration not stated)
2. O=[N+]([O-])c1ccc(-c2cnc3ccccn23)cc1
3. Cc1cc(NC(=O)NC(=O)c2ccccc2[N+](=O)[O-])ccc1Oc1ncc(Cl)cn1
4. N#CC1=C(O)NC(O)=C(C#N)C1c1c(Cl)cccc1Cl

**A:**
["> 100 µM (inactive)", "> 100 µM (inactive)", "0.0906 µM (active)", "34.8 µM (inactive)"]
